# PROTOCOL: yeast display, Sf9 membrane polyspecificity reagent, FACS + sequencing; frameworks hold sequencing errors
MEASUREMENT_TYPE: polyreactivity (PSR sort gate)

[
  {
    "SEQUENCE_RECORD": "QVQLVESGGGLVQAGGSLRLRCAASGRIFRYYAMGWYRQAPGKESELVAAITSSGGSTFYADSVKARFTISRDNAKNTVYLQMNSLKPEDTAVYYCAAPRGTRKTYNSWGQGTQVTVSS",
    "MEASUREMENT_TYPE": "polyreactivity (PSR sort gate)",
    "MEASURED_VALUE": "high polyreactivity"
  },
  {
    "SEQUENCE_RECORD": "QVQLVESGGGLVQAGGSLRLSCAASGSNFLSYAMGWYRQAPGKERELVAAITGSGGNTYYADSVKGRFTISRDNAKHTVYLQMKSLKPEDTAVYYCSAVATRSNYWRGFYYWGQGTKVTVSS",
    "MEASUREMENT_TYPE": "polyreactivity (PSR sort gate)",
    "MEASURED_VALUE": "high polyreactivity"
  }
]
